# Study system: FAAH (Rattus norvegicus)
# Construct: Preparation of Rat Brain Membranes Preparations (FAAH Enzyme Solution); from tissue; host or cells: rat cerebrum (brain membrane preparation)
# Sequence (P97612 whole entry): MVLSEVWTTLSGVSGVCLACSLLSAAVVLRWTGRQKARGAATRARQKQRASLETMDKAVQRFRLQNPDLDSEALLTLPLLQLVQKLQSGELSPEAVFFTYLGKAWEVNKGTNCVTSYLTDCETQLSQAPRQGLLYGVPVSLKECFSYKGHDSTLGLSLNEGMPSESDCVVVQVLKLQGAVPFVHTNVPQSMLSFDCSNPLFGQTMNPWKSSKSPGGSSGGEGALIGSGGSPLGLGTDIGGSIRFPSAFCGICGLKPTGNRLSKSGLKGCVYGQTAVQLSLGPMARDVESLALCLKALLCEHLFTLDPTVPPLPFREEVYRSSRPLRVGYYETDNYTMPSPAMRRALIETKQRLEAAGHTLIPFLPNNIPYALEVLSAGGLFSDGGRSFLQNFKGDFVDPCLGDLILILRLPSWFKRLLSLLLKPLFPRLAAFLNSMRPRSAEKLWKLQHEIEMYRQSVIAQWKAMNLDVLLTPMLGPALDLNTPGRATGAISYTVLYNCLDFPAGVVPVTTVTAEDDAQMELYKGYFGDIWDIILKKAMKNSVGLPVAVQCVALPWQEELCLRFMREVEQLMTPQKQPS
# Procedure details: Determination of FAAH inhibitory activity in rat (rat brain membrane preparations, [3H]-anandamide hydrolysis)
# Format: biochemical
# Experimental setup: rat brain membrane preparations; test substance 0.1 nM to 1 μM; read-out: FAAH Inhibition IC50
Quick list: IC50 per entry.
Give a bare numeral; the unit nM is implied.

Known results for compounds:
Cc1ccc(-c2ncc3c(n2)n(C)c(=O)n3C(=O)N2CCCC2)cc1F: 39
COCCc1ncc2c(n1)n(C)c(=O)n2C(=O)N1CC(c2ccc(C(F)(F)F)cc2)C1: 5
COCc1ncc2c(n1)n(C)c(=O)n2C(=O)N1CC(c2cccc(Cl)c2)C1: 1
CN(C)C(=O)n1c(=O)n(C)c2cnc(CCCOc3cccc(C(F)(F)F)c3)nc21: 6
Cn1c(=O)n(C(=O)N2CCCC2)c2cnc(-c3ccnc(F)c3)nc21: 10

Consider the record given below.
Q) Recorded IC50 for `CN(C)C(=O)n1c(=O)n(C)c2cnc(CCc3cccc(C(F)(F)F)c3)nc21` , please?
A) 17
